assay.target: T1, EGFI-Cr1 N41A (human, UniProt P16422 24-63)
T1 construct: not shown: The fused constant region of human immunoglobulin gamma 1 heavy chain (Cr1)
T1 chain: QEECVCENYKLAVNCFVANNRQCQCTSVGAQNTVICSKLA
method.description: direct ELISA, coated EGFI-Cr1 fusion, 0.1 µg/ml antibody
Below, each of the binders is paired with its reported relative binding activity (% of WT) value.
Give the number; % is assumed, so skip it.

// below: answered binders
1. murine monoclonal antibody 12H8 (antibody, mouse IgG2a, V domains shown, Mouse IgG2a, kappa, from hybridoma; also called m342-12H8.3; m12H8) VH: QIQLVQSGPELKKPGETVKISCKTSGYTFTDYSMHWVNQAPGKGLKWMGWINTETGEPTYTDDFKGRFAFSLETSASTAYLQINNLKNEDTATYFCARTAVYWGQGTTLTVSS VL: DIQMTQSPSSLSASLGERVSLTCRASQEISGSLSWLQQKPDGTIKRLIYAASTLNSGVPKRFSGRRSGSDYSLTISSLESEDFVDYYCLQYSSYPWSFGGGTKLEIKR
81
2. murine monoclonal antibody 1G10 (antibody, mouse IgG1, V domains shown, Mouse IgG1, kappa, from hybridoma; also called m290-1G10) VH: QIQLVQSGPELKKPGETVKISCKASGYTFTNYGMNWVKQAPGKGFKWMGWINTYTGEPTYADDFKGRFAFSLETSASTAYLQINNLQNEDMATYFCARWGYDFDYWGQGTTLTVSS VL: QIVLTQSPAIMSSSPGEKVTMTCSASSSISYMNWYQQKPGTSPKRWIYDTSKLASGVPARFSGSGSGTSYSLTISSMEAEDAATYYCHQRSSYPYTFGGGTKLEIKR
23

Now for the binder whose relative binding activity (% of WT) we want.
Problem: Using the record for murine monoclonal antibody 4D2 (antibody, mouse IgG1, V domains shown, Mouse IgG1, kappa, from hybridoma; also called m338-4D2.20) VH: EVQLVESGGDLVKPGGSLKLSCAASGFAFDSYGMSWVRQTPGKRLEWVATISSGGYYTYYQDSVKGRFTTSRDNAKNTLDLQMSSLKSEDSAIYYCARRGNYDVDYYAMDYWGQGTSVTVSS VL: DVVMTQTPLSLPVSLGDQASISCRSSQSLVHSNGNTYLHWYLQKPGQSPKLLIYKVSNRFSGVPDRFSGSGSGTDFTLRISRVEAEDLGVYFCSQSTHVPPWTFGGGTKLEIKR , state its measured relative binding activity (% of WT).
Solution: 0

Every entry's value here was drawn from patent US20110165161A1.
